Where these numbers come from: patent US20110135636A1

Below, each entry is listed with its recorded % inhibition.
- target_entity: T1, recombinant human EGFR extracellular domain with 6xHis (human, UniProt P00533 25-645)
- T1 construct: In-house produced; also called 6xHis EGFR ECD; soluble human EGFR ECD; not shown: 6xHis tag
- method_summary: SPR competition, competitor Ab-1
// note: answer is a bare numeric in %

As a guide, the following entries are already answered.
antibody 1208 (antibody, human IgG1, kappa, V domains shown, Chimeric IgG1 kappa; also called clone 1208) VH: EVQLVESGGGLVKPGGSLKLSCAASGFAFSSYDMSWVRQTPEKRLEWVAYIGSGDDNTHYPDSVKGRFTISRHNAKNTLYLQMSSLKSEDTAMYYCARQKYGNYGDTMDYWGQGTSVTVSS VL: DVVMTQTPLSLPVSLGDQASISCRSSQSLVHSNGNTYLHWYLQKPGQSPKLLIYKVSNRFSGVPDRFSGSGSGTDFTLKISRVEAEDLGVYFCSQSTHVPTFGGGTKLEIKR    37
antibody 1261 (antibody, human IgG1, kappa, V domains shown, Chimeric IgG1 kappa) VH: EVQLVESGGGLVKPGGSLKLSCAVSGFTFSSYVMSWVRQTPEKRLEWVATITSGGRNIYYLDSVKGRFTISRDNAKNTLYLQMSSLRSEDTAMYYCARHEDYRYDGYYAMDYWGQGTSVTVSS VL: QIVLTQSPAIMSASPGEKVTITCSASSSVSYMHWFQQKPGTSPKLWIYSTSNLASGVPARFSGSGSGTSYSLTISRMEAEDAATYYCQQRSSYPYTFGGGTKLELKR    -4
antibody 1257 (antibody, human IgG1, kappa, V domains shown, Chimeric IgG1 kappa) VH: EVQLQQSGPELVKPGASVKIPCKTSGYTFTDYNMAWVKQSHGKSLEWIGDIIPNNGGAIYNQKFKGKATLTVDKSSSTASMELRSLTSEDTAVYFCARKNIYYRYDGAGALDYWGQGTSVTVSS VL: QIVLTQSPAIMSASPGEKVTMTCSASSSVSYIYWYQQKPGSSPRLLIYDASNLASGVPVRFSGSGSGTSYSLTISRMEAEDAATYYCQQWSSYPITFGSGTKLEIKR    -1
antibody 1344 (antibody, human IgG1, kappa, V domains shown, Chimeric IgG1 kappa) VH: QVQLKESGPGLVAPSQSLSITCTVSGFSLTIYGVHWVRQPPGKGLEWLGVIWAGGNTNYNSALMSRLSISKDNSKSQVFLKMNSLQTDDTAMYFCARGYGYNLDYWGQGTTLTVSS VL: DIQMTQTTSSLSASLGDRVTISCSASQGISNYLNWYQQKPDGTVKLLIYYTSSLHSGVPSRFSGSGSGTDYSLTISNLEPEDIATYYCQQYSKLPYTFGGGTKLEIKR    -2

Now let's try a different one.
# % inhibition of antibody 1024 (antibody, human IgG1, kappa, V domains shown, Chimeric IgG1 kappa) VH: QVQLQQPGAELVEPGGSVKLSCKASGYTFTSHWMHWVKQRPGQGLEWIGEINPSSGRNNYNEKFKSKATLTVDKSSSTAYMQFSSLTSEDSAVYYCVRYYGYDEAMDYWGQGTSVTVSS VL: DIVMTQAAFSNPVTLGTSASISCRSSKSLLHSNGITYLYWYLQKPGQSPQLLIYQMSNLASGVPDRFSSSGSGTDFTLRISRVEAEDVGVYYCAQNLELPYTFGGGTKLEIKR = 6
